Data provenance: patent US12209087B2

system: full length AKT E17K (Homo sapiens, UniProt P31749, E17K)
Construct: host or cells: HEK-293 (ATCC CRL-1573)
Sequence (P31749 whole entry E17K): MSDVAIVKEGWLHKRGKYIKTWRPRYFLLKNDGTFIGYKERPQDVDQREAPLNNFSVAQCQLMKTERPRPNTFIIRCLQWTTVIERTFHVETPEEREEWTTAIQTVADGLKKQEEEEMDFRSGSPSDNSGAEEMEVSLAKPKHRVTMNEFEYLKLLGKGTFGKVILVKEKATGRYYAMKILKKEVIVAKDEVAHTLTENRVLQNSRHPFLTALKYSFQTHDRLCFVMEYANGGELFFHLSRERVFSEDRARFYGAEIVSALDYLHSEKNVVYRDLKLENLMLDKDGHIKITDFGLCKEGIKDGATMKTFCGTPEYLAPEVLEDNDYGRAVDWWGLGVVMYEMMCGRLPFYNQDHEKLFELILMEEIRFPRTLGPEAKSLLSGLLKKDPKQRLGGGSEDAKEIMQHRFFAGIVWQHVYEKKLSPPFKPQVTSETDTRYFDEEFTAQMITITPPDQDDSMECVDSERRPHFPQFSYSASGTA
procedure_text: NanoBRET Target Engagement (TE) Assay
Type: cell-based
assay_context: competitive displacement of tracer in cells, read-out: AKT1 E17K IC50
pIC50: −log10 of the molar value.
# pIC50 annotations

[
  {
    "compound": "N#Cc1nccc(NC2CCN(Cc3ccc(-n4c(-c5cccnc5N)nc5ccc(C6CCCC6)nc54)cc3)CC2)n1 [Example 388]",
    "pIC50": "> 7.82"
  },
  {
    "compound": "[2H]C([2H])([2H])N(c1ccnc(C#N)n1)C1CCN(Cc2ccc(-n3c(-c4cccnc4N)nc4cc(C)c(C)nc43)cc2)CC1 [Example 455]",
    "pIC50": "> 7.82"
  },
  {
    "compound": "N#Cc1nccc(N2C[C@H]3CN(Cc4ccc(-n5c(-c6cccnc6N)nc6ccc(-c7ccc(F)cc7)nc65)cc4)C[C@H]3C2)n1 [Example 449]",
    "pIC50": "7.22 to 7.82"
  },
  {
    "compound": "N#Cc1nccc(N2CC3(CN(Cc4ccc(-n5c(-c6cccnc6N)nc6ccc(-c7ccc(F)cc7)nc65)cc4)C3)C2)n1 [Example 447]",
    "pIC50": "> 7.82"
  },
  {
    "compound": "N#Cc1nccc(NC2CCN(Cc3ccc(-n4c(-c5cccnc5N)nc5ccc(OC(F)F)nc54)cc3)CC2)n1 [Example 535]",
    "pIC50": "> 7.82"
  },
  {
    "compound": "N#Cc1ccnc(N2CCN(Cc3ccc(-n4c(-c5cccnc5N)nc5ccc(C6CC6)nc54)cc3)CC2)n1 [Example 350]",
    "pIC50": "7.22 to 7.82"
  },
  {
    "compound": "CC(C)c1ccc(-c2ccc3nc(-c4cccnc4N)n(-c4ccc(CN5CCC(Nc6ccnc(C#N)n6)CC5)cc4)c3n2)cn1 [Example 643]",
    "pIC50": "> 7.82"
  },
  {
    "compound": "N#Cc1nccc(NC2CCN(Cc3ccc(-n4c(-c5cccnc5N)nc5ccc(C6=CCCC6)nc54)cc3)CC2)n1 [Example 453]",
    "pIC50": "> 7.82"
  },
  {
    "compound": "N#Cc1ncc(C(=O)N2CCN(Cc3ccc(-n4c(-c5cccnc5N)nc5ccc(-c6ccccc6)nc54)cc3)CC2)s1 [Example 327]",
    "pIC50": "6.22 to 7.22"
  },
  {
    "compound": "N#Cc1ccc2nc(-c3cccnc3N)n(-c3ccc(CN4CCC(Nc5ccnc(C#N)n5)CC4)cc3)c2c1 [Example 500]",
    "pIC50": "> 7.82"
  },
  {
    "compound": "N#Cc1cc(N2CCN(Cc3ccc(-n4c(-c5cccnc5N)nc5ccc(-c6ccc(Cl)cc6)nc54)cc3)CC2)ncn1 [Example 344]",
    "pIC50": "6.22 to 7.22"
  },
  {
    "compound": "COc1ccccc1-c1ccc2nc(-c3cccnc3N)n(-c3ccc(CN4CCC(Nc5ccnc(C#N)n5)CC4)cc3)c2n1 [Example 422]",
    "pIC50": "> 7.82"
  },
  {
    "compound": "COc1cnc(-c2ccc3nc(-c4cccnc4N)n(-c4ccc(CN5CCC(Nc6ccnc(C#N)n6)CC5)cc4)c3n2)nc1 [Example 581]",
    "pIC50": "7.22 to 7.82"
  },
  {
    "compound": "N#Cc1nccc(NC2CCN(Cc3ccc(-n4c(-c5cccnc5N)nc5ccc(-c6cnco6)nc54)cc3)CC2)n1 [Example 462]",
    "pIC50": "> 7.82"
  }
]
